Target: Human Androgen Receptor (Homo sapiens)
Sequence (P10275 1-920): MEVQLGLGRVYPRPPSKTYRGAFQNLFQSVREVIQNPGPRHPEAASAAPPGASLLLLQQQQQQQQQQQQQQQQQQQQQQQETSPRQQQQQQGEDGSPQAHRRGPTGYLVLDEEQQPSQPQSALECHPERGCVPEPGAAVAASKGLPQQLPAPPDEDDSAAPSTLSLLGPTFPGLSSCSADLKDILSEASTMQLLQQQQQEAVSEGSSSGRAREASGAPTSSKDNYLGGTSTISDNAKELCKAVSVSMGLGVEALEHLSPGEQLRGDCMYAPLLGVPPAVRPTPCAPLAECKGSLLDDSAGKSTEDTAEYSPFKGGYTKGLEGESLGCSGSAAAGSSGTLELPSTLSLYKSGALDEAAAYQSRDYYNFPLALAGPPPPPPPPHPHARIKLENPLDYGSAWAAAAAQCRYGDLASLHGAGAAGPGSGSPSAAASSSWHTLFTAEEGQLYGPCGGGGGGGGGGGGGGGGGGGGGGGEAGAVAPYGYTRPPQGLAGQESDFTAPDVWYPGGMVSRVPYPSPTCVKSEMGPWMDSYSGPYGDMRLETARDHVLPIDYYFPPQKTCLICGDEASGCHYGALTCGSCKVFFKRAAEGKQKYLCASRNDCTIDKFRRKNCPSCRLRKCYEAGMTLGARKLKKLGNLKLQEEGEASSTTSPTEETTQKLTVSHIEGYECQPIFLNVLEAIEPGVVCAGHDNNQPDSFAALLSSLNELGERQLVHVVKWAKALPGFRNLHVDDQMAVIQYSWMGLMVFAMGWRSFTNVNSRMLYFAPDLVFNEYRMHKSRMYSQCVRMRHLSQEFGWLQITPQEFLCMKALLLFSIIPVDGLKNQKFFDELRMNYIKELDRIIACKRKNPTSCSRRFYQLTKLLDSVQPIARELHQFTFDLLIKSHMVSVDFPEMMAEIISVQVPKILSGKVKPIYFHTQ
Experiment: Androgen receptor binding assay (hydroxylapatite, [3H]R1881, cytosol of transfected HEK-293 cells)
Settings: % RBA=100×IC50 R1881/IC50 compound, transfected cells
assay-readout: Androgen Receptor Binding (%) Human RBA R1881 = 100
Response body: numeric value in %, unit text excluded.

Qu. Lab note: need Androgen Receptor Binding (%) Human RBA R1881 = 100 for C[C@]1(O)CCC2C3CCC4=CC(=O)CCC4C3CC[C@@]21CCOc1cccc(CN2CCCCC2)c1 (stereo partly shown) on Human Androgen Receptor (Homo sapiens), anyone have it?
Ans. 25

Qu. Do the same for C#C[C@]1(O)CCC2C3CCC4CC(=O)CC[C@]4(C)C3CC[C@@]21CCOc1cccc(C(C)NC2CCCCC2)c1 (stereo partly shown) please
Ans. 40

Qu. Similarly, CCC(NC1CCOCC1)c1cccc(OCC[C@]23CCC4C(CCC5Cc6nocc6C[C@@]54C)C2CCC3O)c1 (stereo partly shown) ?
Ans. 13

Qu. Input CCC(NC1CCS(=O)(=O)CC1)c1cccc(OCC[C@]23CCC4C(CCC5CC(=O)CC[C@@]54C)C2CCC3O)c1 (stereo partly shown)
Ans. 62

Qu. Let us now turn to O=C1C=C2CCC3C(CC[C@@]4(CCOc5cccc(CNC6CCCCC6)c5)C3CC[C@@H]4O)C2CC1 (stereo partly shown)
Ans. 3.4

Qu. Now try C[C@]12CCC(=O)CC1CCC1C2CC[C@]2(CCOc3cccc(CNc4ccncc4)c3)C(O)CCC12 (stereo partly shown) .
Ans. 6

Qu. CC(C)CC(C)NCc1cccc(OCC[C@]23CCC4C(CCC5CC(=O)CC[C@@]54C)C2CC[C@@H]3O)c1 (stereo partly shown) ?
Ans. 54

Qu. Same for CN(C)CC(NC1CCCCC1)c1cncc(OCC[C@]23CCC4C(CCC5=CC(=O)CC[C@@]54C)C2CCC3O)c1 (stereo partly shown)
Ans. 20

Qu. Please do the same for CCC(CC)NC(CC)c1cccc(OCC[C@]23CCC4C(CCC5C/C(=N/O)CC[C@@]54C)C2CC[C@@H]3OC)c1 (stereo partly shown) as well.
Ans. 29

Qu. Please answer likewise for CCCC(NC(C)C)c1cccc(OCC[C@]23C=CC4=C5CCC(=O)C=C5CCC4C2CC[C@@]3(C)O)c1 (mixture of isomers)
Ans. 27

Qu. Now the same for CCCC(NC(CC)CC)c1cccc(OCC[C@]23CCC4C(CCC5=CC(=O)CC[C@@]54C)C2CC[C@@H]3O)c1 (stereo partly shown)
Ans. 139

Qu. Quick one: C[C@]12CCC(=O)CC1CCC1C2CC[C@@]2(CCOc3cccc(CNC4CC5CCC4C5)c3)C1CC[C@@H]2O (stereo partly shown)
Ans. 13

Qu. Please do the same for CCC(NC(C)C)c1cc(OCC[C@]23CCC4C(CCC5CC(=O)CC[C@@]54C)C2CCC3O)ccn1 (stereo partly shown) as well.
Ans. 120.6

###

Task for the reader: assign each of the following molecules its reported Androgen Receptor Binding (%) Human RBA R1881 = 100.
target: Human Androgen Receptor (Homo sapiens); test: Androgen receptor binding assay (hydroxylapatite, [3H]R1881, cytosol of transfected HEK-293 cells); details: % RBA=100×IC50 R1881/IC50 compound, transfected cells
Express it in %; write the number only.

Qu. Androgen Receptor Binding (%) Human RBA R1881 = 100 for CC[C@H](NC1CCCCC1)c1cccc(OCC[C@]23CCC4C(CCC5CC(=O)CC[C@@]54C)C2CC[C@@H]3O)c1 (some centres unmarked) ?
Ans. 230

Qu. Quick one: CCCC(NC(CC)CC)c1cccc(OCC[C@]23CCC4C5CCC(=O)C=C5C(C)(C)CC4C2CCC3=O)c1 (some centres unmarked)
Ans. 35

Qu. Follow-up item: CCC(NC1CCCC1)c1cccc(OCC[C@]23CCC4C5CCC(=O)C=C5C[C@@H](C)C4C2CC[C@@H]3O)c1 (mixture of isomers)
Ans. 56

Qu. Similarly, COCC(NC1CCCCC1)c1cccc(OCC[C@]23CCC4C(CCC5CC(=O)CC[C@@]54C)C2CCC3O)c1 (some centres unmarked) ?
Ans. 151

Qu. And what about the molecule CCC(NC1CCCC1)c1cccc(OCC[C@]23CCC4C(CCC5CC(=O)CC[C@@]54C)C2CC[C@@H]3O)c1 (some centres unmarked) ?
Ans. 88

Qu. What do you have for CC1CCC(NCc2cccc(OCC[C@]34CCC5C(CCC6CC(=O)CC[C@@]65C)C3CC[C@@H]4O)c2)CC1 (some centres unmarked) ?
Ans. 43

Qu. # iterate: CCC(CC)NC(CN(C)C)c1cccc(OCC[C@]23CCC4C(CCC5CC(=O)CC[C@@]54C)C2CC[C@@H]3O)c1 (some centres unmarked)
Ans. 176

Qu. # repeat for CCCCS(=O)(=O)Cc1cccc(OCC[C@]23CCC4C5CCC(=O)C=C5CCC4C2CC[C@@H]3O)c1 (some centres unmarked)
Ans. 3.0

Qu. Subsequent entry: CCC(NC1CCCCC1)c1cc(OCC[C@]23CCC4C(CCC5=CC(=O)CC[C@@]54C)C2CCC3O)ccn1 (some centres unmarked)
Ans. 22.3

Qu. Note, next up: CCC(CC)N(C)C(CC)c1cccc(OCC[C@]23CCC4C5CCC(=O)C=C5C[C@@H](C)C4C2CC[C@]3(C)O)c1 (mixture of isomers)
Ans. 128

Qu. CCC(NC(C)C)c1cccc(OCC[C@]23CCC4C(CCC5=CC(=O)CC[C@@]54C)C2CC[C@@H]3O)c1 (some centres unmarked) , same question.
Ans. 147

Qu. Again, but for CCC(CC)N(C)C(CC)c1cccc(OCC[C@]23CCC4C5CCC(=O)C=C5CCC4C2CC[C@@H]3O)c1 (some centres unmarked)
Ans. 140

Qu. Another molecule: CCCC(c1cccc(OCC[C@]23CCC4C(CCC5CC(=O)CC[C@@]54C)C2CC[C@@H]3O)c1)N(C)C(CC)CC (some centres unmarked)
Ans. 744

Qu. # repeat for CC(NC1CCCC1)c1cccc(OCC[C@]23CCC4C(CCC5CC(=O)CC[C@@]54C)C2CC[C@@H]3O)c1 (some centres unmarked)
Ans. 87

Qu. What do you get for CCC(CC)N(C)C(CC)c1cccc(OCC[C@]23CCC4C5CCC(=O)C=C5CCC4C2CC[C@]3(C)O)c1 (some centres unmarked) ?
Ans. 107

Qu. Would you kindly repeat that for CCCCC(NC(CC)CC)c1cccc(OCC[C@]23CCC4C(CCC5CC(=O)CC[C@@]54C)C2CCC3O)c1 (some centres unmarked) ?
Ans. 372

Qu. Then this molecule: CCC(CC)NCc1ccc(F)c(OCC[C@]23CCC4C(CCC5CC(=O)CC[C@@]54C)C2CC[C@@H]3OC)c1 (some centres unmarked)
Ans. 226

Qu. Next up: CCC(Nc1ccncc1)c1cccc(OCC[C@]23CCC4C(CCC5CC(=O)CC[C@@]54C)C2CCC3O)c1 (some centres unmarked)
Ans. 5

Qu. Input CCC(NC1CCOCC1)c1cccc(OCC[C@]23CCC4C(CCC5=CC(=O)CC[C@@]54C)C2CCC3O)c1 (some centres unmarked)
Ans. 34.6

Qu. Then what about the molecule CCC(CC)CNC(CC)(CC)c1cccc(OCC[C@]23CCC4C(CCC5CC(=O)CC[C@@]54C)C2CCC3=O)c1 (some centres unmarked) ?
Ans. 2088

Qu. Repeat with CCC(NCC1CCCO1)c1ccnc(OCC[C@]23CCC4C(CCC5CC(=O)CC[C@@]54C)C2CC[C@@H]3O)c1 (some centres unmarked)
Ans. 54.3

Qu. Also CCN(C1CCCCC1)[C@H](C)c1cccc(OCC[C@]23CCC4C(CCC5CC(=O)CC[C@@]54C)C2CC[C@@H]3O)c1 (some centres unmarked) , if possible.
Ans. 121

Qu. What do you have for CO[C@H]1CCC2C3CCC4CC(=NO)CC[C@]4(C)C3CC[C@@]21CCOc1cccc(C(C)NC2CCCCC2)c1 (some centres unmarked) ?
Ans. 10

Numbers sourced from patent US9090651B2.
